Percentage inhibition of TNF secretion at 10 ng/ml values by entry
- ASSAY SYSTEM: CD40 on peripheral blood mononuclear cells (PBMC) from healthy donors (human, UniProt P25942 21-277)
- Sequence (P25942 21-277): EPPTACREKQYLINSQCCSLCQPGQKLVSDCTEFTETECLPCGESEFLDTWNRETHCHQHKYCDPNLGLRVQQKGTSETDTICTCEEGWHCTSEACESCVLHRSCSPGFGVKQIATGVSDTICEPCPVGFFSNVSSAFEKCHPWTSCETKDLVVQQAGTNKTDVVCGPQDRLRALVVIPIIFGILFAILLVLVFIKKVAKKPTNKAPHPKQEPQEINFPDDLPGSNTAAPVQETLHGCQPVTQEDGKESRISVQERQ
- METHOD: cell-based or functional assay
Report as a plain number; the unit % is understood.

// Percentage inhibition of TNF secretion at 10 ng/ml lookup, binder = PG102_Var14 (antibody, human IgG4 S228P, kappa, V domains shown, IgG4pro(deltaK)/kappa; also called FFP104_Var14) VH: QVQLQESGPGLVKPSETLSITCTVSGFSLSRYSVYWVRQPPGKGLEWMGMMWGGGSTDYSTSLKSRLTISKDTSKSQVSLKMSSLTAADTAVYYCVRTDGDYWGQGTLVTVSS VL: DIVMTQSPLSLPVTPGQPASISCRSSQSLASSQGNTYLHWYLQKPGQSPRLLIYKVSNRFSGVPDRFSGSGSGTDFTLKISRVEAEDVGVYYCSQSTHVPWTFGGGTKLEIKR , result: 85.5

// Percentage inhibition of TNF secretion at 10 ng/ml lookup, binder = PG102_Var1 (antibody, human IgG4 S228P, kappa, V domains shown, IgG4pro(deltaK)/kappa; also called FFP104_Var1) VH: QVQLQESGPGLVKPSETLSITCTVSGFSLSRYSVYWIRQPPGKGPEWMGMMWGGGSTDYSTSLKSRLTISKDTSKSQVSLKMSSLTAADTAVYYCVRTDGDYWGQGTLVTVSS VL: ELQLTQSPLSLPVTLGQPASISCRSSQSLASSSGNTYLHWYLQRPGQSPRLLIYKVSNRFSGVPDRFSGSGSGTDFTLKISRVEAEDVGVYYCSQSTHVPWTFGGGTKLEIKR , result: 81.8

// Percentage inhibition of TNF secretion at 10 ng/ml lookup, binder = PG102_Var3 (antibody, human IgG4 S228P, kappa, V domains shown, IgG4pro(deltaK)/kappa; also called FFP104_Var3) VH: QVQLQESGPGLVKPSQTLSLTCTVSGFSLSRYSVYWVRQPPGKGLEWIGMMWGGGSTDYNPSLKSRLTISKDTSKSQVSLKLSSLTAADTAVYYCVRTDGDYWGQGTLVTVSS VL: ELQLTQSPLSLPVTLGQPASISCRSSQSLASSSGNTYLHWYLQRPGQSPRLLIYKVSNRFSGVPDRFSGSGSGTDFTLKISRVEAEDVGVYYCSQSTHVPWTFGGGTKLEIKR , result: 88.5

// Percentage inhibition of TNF secretion at 10 ng/ml lookup, binder = PG102_Var10 (antibody, human IgG4 S228P, kappa, V domains shown, IgG4pro(deltaK)/kappa; also called FFP104_Var10) VH: QVQLQESGPGLVKPSETLSITCTVSGFSLSRYSVYWVRQPPGKGLEWMGMMWGGGSTDYSTSLKSRLTISKDTSKSQVSLKMSSLTAADTAVYYCVRTDGDYWGQGTLVTVSS VL: ELQLTQSPLSLPVTLGQPASISCRSSQSLADSQGNTYLHWYLQRPGQSPRLLIYKVSNRFSGVPDRFSGSGSGTDFTLKISRVEAEDVGVYYCSQSTHVPWTFGGGTKLEIKR , result: 75.8
